System: Lactobacillus gasseri (FERM BP-11331)
Test: Growth-promoting effect on Lactobacillus gasseri in modified MRS medium (particle count)
Type: cell-based
Conditions: Example 1; peptide 0.25 mg/mL, 37° C., 18 hours; control without peptide = 100%
Measured Quantity: Rate of increase (%)
Write it as a number; the unit % goes unstated.

// known answers, use as guide
Substance: Leu-Pro-Leu-Gly (LPLG; listed as Saccharomyces cerevisiae)
Rate of increase [%]: 120
//
Substance: Val-Pro-Val-Gly (VPVG; listed as Saccharomyces cerevisiae)
Rate of increase [%]: 102
//
Substance: Pro-Ser-Val-Phe (PSVF; listed as Saccharomyces cerevisiae)
Rate of increase [%]: 134
//
Substance: Ile-Pro-Ile-Thr (IPIT; listed as Saccharomyces cerevisiae)
Rate of increase [%]: 121
//
Substance: Val-Pro-Ala-Phe (VPAF; listed as Saccharomyces cerevisiae)
Rate of increase [%]: 152
//
Substance: HDDKHIIVD (listed as Saccharomyces cerevisiae) [His-Asp-Asp-Lys-His-Ile-Ile-Val-Asp]
Rate of increase [%]: 114
//
Substance: PNVLPETE (listed as Saccharomyces cerevisiae) [Pro-Asn-Val-Leu-Pro-Glu-Thr-Glu]
Rate of increase [%]: 101

Request: Consider the substance shown here: APKPDYPIA (listed as Saccharomyces cerevisiae) [Ala-Pro-Lys-Pro-Asp-Tyr-Pro-Ile-Ala] What is its recorded Rate of increase?
Response: 137
